# IC50 per entry
System Under Test: EGFR WT (Ba/F3 cells) (Homo sapiens)
Sequence (P00533 25-1210): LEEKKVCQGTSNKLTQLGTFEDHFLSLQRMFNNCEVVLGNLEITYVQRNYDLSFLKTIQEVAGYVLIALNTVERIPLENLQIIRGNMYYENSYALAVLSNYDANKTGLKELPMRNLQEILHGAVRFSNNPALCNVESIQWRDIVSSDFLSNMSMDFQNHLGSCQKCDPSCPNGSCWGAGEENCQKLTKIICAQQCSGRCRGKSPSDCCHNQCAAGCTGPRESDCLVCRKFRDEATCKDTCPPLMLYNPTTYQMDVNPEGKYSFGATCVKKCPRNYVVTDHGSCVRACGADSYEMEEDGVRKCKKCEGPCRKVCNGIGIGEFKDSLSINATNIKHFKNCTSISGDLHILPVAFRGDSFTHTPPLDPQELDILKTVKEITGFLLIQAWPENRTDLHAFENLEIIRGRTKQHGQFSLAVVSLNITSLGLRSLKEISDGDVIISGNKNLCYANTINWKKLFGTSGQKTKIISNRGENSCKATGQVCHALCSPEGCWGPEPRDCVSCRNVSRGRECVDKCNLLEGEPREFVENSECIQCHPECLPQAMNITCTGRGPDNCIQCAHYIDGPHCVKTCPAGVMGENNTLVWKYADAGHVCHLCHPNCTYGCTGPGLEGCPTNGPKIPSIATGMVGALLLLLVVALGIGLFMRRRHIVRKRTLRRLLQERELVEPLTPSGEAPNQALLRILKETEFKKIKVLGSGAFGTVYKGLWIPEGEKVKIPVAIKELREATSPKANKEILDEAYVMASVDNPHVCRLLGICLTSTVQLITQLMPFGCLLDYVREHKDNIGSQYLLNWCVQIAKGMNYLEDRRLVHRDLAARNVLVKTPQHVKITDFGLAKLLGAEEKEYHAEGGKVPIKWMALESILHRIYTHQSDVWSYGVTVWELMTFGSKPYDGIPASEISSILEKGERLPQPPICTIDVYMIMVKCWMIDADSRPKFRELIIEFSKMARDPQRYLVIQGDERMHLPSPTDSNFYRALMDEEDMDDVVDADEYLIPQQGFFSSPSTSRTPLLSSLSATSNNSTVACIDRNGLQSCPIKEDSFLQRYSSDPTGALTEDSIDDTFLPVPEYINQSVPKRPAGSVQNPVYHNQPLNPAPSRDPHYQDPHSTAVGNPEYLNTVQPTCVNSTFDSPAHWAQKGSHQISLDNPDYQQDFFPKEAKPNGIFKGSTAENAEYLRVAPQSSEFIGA
Measurement Notes: Inhibitor activity on EGFR-dependent cell growth (CellTiter-Glo, 72 h), Ba/F3 EGFR WT
Cond: read-out: BaF3 WT IC50
Measure: IC50

> print(dat)
                                 smiles.str                     system.under.test          result
1  COc1ncc2nccc(-c3[nH]c4c(c3Nc3cc(F)cc(Cl)c3OC)C(=O)NCC4)c2n1  EGFR WT (Ba/F3 cells) (Homo sapiens)  100 to 1000 nM
2  COc1c(Cl)cccc1Nc1c(-c2ccnc3ccc(OC4CC4)nc23)[nH]c2c1C(=O)NCC2  EGFR WT (Ba/F3 cells) (Homo sapiens)        < 100 nM
3  COc1nc2c(-c3[nH]c4c(c3Nc3cccc(Cl)c3OC)C(=O)NCC4)ccnc2cc1F  EGFR WT (Ba/F3 cells) (Homo sapiens)  100 to 1000 nM
4  CNC(=O)N1CC[C@]2(CNC(=O)c3c2[nH]c(-c2ccncc2F)c3Nc2cccc(Cl)c2OC)C1  EGFR WT (Ba/F3 cells) (Homo sapiens)       > 1000 nM
